For each record, write down the corresponding Amaranthus retroflexus (efficacy in %).
tested on: Amaranthus retroflexus; assay: Pre-emergence herbicidal action, greenhouse, 320 g/ha; format: in vivo; settings: application rate 320 g/ha, scored visually after about 3 weeks vs untreated controls
Write the answer as a number in %, unit excluded.

Amaranthus retroflexus (efficacy in %) lookup needed for CN1CCC(O)N(c2cc(C(F)(F)F)ccn2)C1=O (stereo not shown) [I.1-449] , thanks. 100

Amaranthus retroflexus (efficacy in %) lookup needed for CC(=O)OC1CCN(C)C(=O)N1c1cc(C(C)(C)C)on1 (stereo not shown) [I.2-162] , thanks. 100

Amaranthus retroflexus (efficacy in %) lookup needed for C=CCC(C)(C)c1cc(N2C(=O)N(C)CCC2O)no1 (stereo not shown) [I.1-199] , thanks. 100

Amaranthus retroflexus (efficacy in %) lookup needed for CCC(=O)OC1CCN(C)C(=O)N1c1cc(C(C)(C)C)on1 (stereo not shown) [I.3-162] , thanks. 100

Amaranthus retroflexus (efficacy in %) lookup needed for CCC(=O)OC1CCN(C)C(=O)N1c1cc(C(F)(F)F)c(Br)cn1 (stereo not shown) [I.3-464] , thanks. 90

Amaranthus retroflexus (efficacy in %) lookup needed for CN1CCC(O)N(c2cc(C(F)(F)F)ncn2)C1=O (stereo not shown) [I.1-506] , thanks. 90

Amaranthus retroflexus (efficacy in %) lookup needed for CC(=O)OC1CC2CCCN2C(=O)N1c1cc(C(C)(C)C)on1 (stereo not shown) [I.122-162] , thanks. 90

Amaranthus retroflexus (efficacy in %) lookup needed for CN1CCC(O)N(c2cc(C(C)(C)C)on2)C1=O (stereo not shown) [I.1-162] , thanks. 100

Amaranthus retroflexus (efficacy in %) lookup needed for CC1CC(O)N(c2cc(C(F)(F)F)ccn2)C(=O)N1C (stereo not shown) [I.41-449] , thanks. 100

Amaranthus retroflexus (efficacy in %) lookup needed for Cc1c(N2C(=O)N(C)CCC2O)noc1C(C)(C)C (stereo not shown) [I.1-177] , thanks. 90

###

system: Alopecurus myosuroides; assay: Pre-emergence herbicidal action, greenhouse, 320 g/ha; assay type: in vivo; details: application rate 320 g/ha, scored visually after about 3 weeks vs untreated controls
For each record, write down the corresponding Alopecurus myosuroides (efficacy in %).
Write the answer as a number in %, unit excluded.

// map CC1CC(O)N(c2cc(C(F)(F)F)ccn2)C(=O)N1C (stereo not shown) to recorded Alopecurus myosuroides (efficacy in %) (system: Alopecurus myosuroides) 90

// map CC(=O)OC1CC2CCCN2C(=O)N1c1cc(C(C)(C)C)on1 (stereo not shown) to recorded Alopecurus myosuroides (efficacy in %) (system: Alopecurus myosuroides) 90

// map CCCC(=O)OC1CCN(C)C(=O)N1c1cc(C(C)(C)C)on1 (stereo not shown) to recorded Alopecurus myosuroides (efficacy in %) (system: Alopecurus myosuroides) 90

// map CN1CCC(O)N(c2cc(C(F)(F)F)ncn2)C1=O (stereo not shown) to recorded Alopecurus myosuroides (efficacy in %) (system: Alopecurus myosuroides) 90

// map CON1CCC(O)N(c2cc(C(C)(C)C)on2)C1=O (stereo not shown) to recorded Alopecurus myosuroides (efficacy in %) (system: Alopecurus myosuroides) 80

// map CN1CCC(O)N(c2cc(C(F)(F)F)c(Br)cn2)C1=O (stereo not shown) to recorded Alopecurus myosuroides (efficacy in %) (system: Alopecurus myosuroides) 80

// map CC(=O)OC1CC(C)N(C)C(=O)N1c1cc(C(C)(C)C)on1 (mixture of isomers) to recorded Alopecurus myosuroides (efficacy in %) (system: Alopecurus myosuroides) 90
